Data origin, for the record: PubChem BioAssay (NCI)

TGI values, listed per item
system: COLO 205 colon; assay: NCI tumour cell line growth inhibition, 48 h

| molecule | metric | measured.result |
| --- | --- | --- |
| O=c1[nH]c(=O)n(C2CC(O)C(COP(=O)(OCC(Cl)(Cl)Cl)OCC(Cl)(Cl)Cl)O2)cc1F (configuration not stated) | TGI | > 100 µM |

Tell me measured TGI for COC(=O)[C@H](C)N(C)C(=O)[C@H](C)N1[C@@H](c2ccccc2)COC1(C)C please.
> 100 µM

Tell me measured TGI for Oc1cccc2ccc(Br)nc12 please.
> 100 µM

Tell me measured TGI for COc1cc(OC)nc(-n2c(N)c(C(=O)O)c3ccc([N+](=O)[O-])cc3c2=O)n1 please.
> 100 µM

Tell me measured TGI for Nc1ncc2c(n1)-c1ccccc1OC2N1CCOCC1 (configuration not stated) please.
> 100 µM

Tell me measured TGI for COC1(OC)C2C=CC1C([C@](C)(N)CO)C2 (some centres not stated) please.
> 100 µM

Tell me measured TGI for CC(C)(C)OC(=O)C1/C(=C/CBr)CN1C(=O)OC(C)(C)C (configuration not stated) please.
6.1 µM

Tell me measured TGI for COC(=O)[C@@H]1[C@H]2CC[C@]3(C)[C@@H](OC(C)=O)CC[C@H]3[C@@H]2CC[C@H]1C(C)=O please.
> 100 µM

Tell me measured TGI for COC(=O)/C(=N\N)C(C(=O)C(=O)Nc1nc(=S)[nH][nH]1)c1nc2ccc([N+](=O)[O-])cc2[nH]c1=O (configuration not stated) please.
> 100 µM

Tell me measured TGI for O=C1NC(N2CCCCC2)=N/C1=C\c1ccco1 please.
> 100 µM

Tell me measured TGI for N[C@H]1CCN(c2c(F)cc3c(=O)c(C(=O)O)cn4c3c2Oc2c-4ccc3c2ccc2ccccc23)C1 please.
> 100 µM

Tell me measured TGI for NC(Cc1c[nH]c2cccc(F)c12)C(=O)O (configuration not stated) please.
944 µM

* * *

GI50 values, listed per item
tested on: SNB-19 CNS; test: NCI tumour cell line growth inhibition, 48 h

Give GI50 only, for CCN(CC)CCCNc1cc(OC)c(OC)c2cccnc12 , using SNB-19 CNS data.
13.1 µM

Give GI50 only, for O=C(c1ccc(Nc2nccc(NCCCCNc3ccnc4cc(Cl)ccc34)n2)cc1)N1CCCCC1 , using SNB-19 CNS data.
3.89 µM

Give GI50 only, for CCOC(=O)CCSC1=CC(=O)c2nc3ccccc3c3ccnc1c23 , using SNB-19 CNS data.
20.5 µM

Give GI50 only, for Cc1ccc(NC2=CC(=O)C(=O)c3ccccc32)cc1 , using SNB-19 CNS data.
2.09 µM

Give GI50 only, for O=c1[nH]c2ccccc2n1C1CCN(CCOc2ccccc2)CC1 , using SNB-19 CNS data.
47.8 µM

* * *

tested on: NCI-H460 lung; assay: NCI tumour cell line growth inhibition, 48 h
TGI values, listed per item

These solved cases illustrate the format of a correct answer.
| molecule | measured.result |
| --- | --- |
| O=C(COc1cccc(/C=C2\Oc3ccc4ccccc4c3C2=O)c1)c1ccc([N+](=O)[O-])cc1 | > 100 µM |
| Cc1cnc2[nH]c(-c3ccc(Cl)cc3)cc(=O)c2c1 | > 100 µM |
| CN(C)CCNC(=O)c1cccc2c1nc(-c1ccncc1)c1ccccc12 | 3.05 µM |
| C=CCC1C(=O)CC2(C)C(CC=C)C(=O)CC12C (stereo unspecified) | > 100 µM |
| Nc1no[n+]([O-])c1-c1nnc2c(n1)-c1ccccc1C2=O | 11.4 µM |

Tell me measured TGI for Cc1ccc2c(c1)CC1(C2)Cc2ccc(C)cc2C1=O (stereo unspecified) please.
55.5 µM

Tell me measured TGI for NC(Cc1c[nH]c2cccc(F)c12)C(=O)O (stereo unspecified) please.
2460 µM
